This collection of values is drawn from the EternaBench riboswitch data.

# maps each entry to its apparent Kd
- Tested on: MS2 coat protein
- TEST: apparent Kd, MS2 coat protein; higher = weaker binding; RNA-MaP array; FMN 200 µM where present
- COND: ligand present: flavin mononucleotide; designed as: OFF switch for flavin mononucleotide

# MONOMER SEQUENCE, apparent Kd (nM)
data = [
    ("AAAAGGUCAGGAUAUGCCCUCCUGGUGGAAAAGCCUGGUGGGCAGAAGGGACAUGAGGAUCACCCAUGUAAAAA", 81.8),
    ("GGUCCAUCUGUUAGGAUAUGCUUUGGGCUUCCGCAGUAGAAGGAACAUGAGGAUCACCCAUGUCCGAUGCCGUA", 25.4),
    ("AAAAGCAAAGGAUAUACAUGAGGAUCACCCAUGUAAAAAAGAAAAGAGUAUAUGGCAUGUAGAAGGUUGCGUGG", 49.8),
    ("UAUAUAUAGUAAGGAUAUGUAUAUAAUUUAUAAACAGAAGGUACUGACAUGAGGAUCACCCAUGUUUUAGUGUGGGCAUGUAGA", 141),
    ("CUGAGUAGUCAGGAUAUGCUGUACAAAAGUACAGCAGAAGGGAUUACAUGAGGAUCACCCAUGUUUACUUCAUG", 209),
    ("CCCGGCGUGACGCUACACCGAGAGCAGGAUAUUCCGCCGUGAUCUACAUGAGGAUCACCCAUGUGGAAGAAGGGCUACACAAAA", 37.5),
    ("GUUUCACAUGAGGAUCACCCAUGUGAGGAUAUGGAUUCGCUGGCCGUAGCCAGUGGAUCCAGAAGGCGCAUGAU", 44),
]
